Data origin: the supplement of paper PMC10567573

method summary: protein stability index of a GFP-peptide fusion (GPS, HEK-293T) (PSI 1-6); higher = more stable;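 further: 24-mer peptide tiles fused after GFP, lentivirally expressed, FACS-sorted into six equal bins by GFP/DsRed ratio, decoded by Illumina sequencing, PSI is the read-weighted mean bin number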
experimental conditions: treatment: MLN4924 1 uM, 8 h; c terminus: a fixed tail appended
Decision: protein stability index compared against 3; not below it gives YES, below it gives NO.

Use these answered entries as a reference point.
sequence input	cat
WDIGRGKLYHQSKGPGAPQYPAGT [SPSB2]	YES
ACRRRDALTGHLRTHSVIKEETNH [IKZF1]	YES
IQHRRTHTDSKYEHAIAEAQKNMY [ZNF396]	YES
FEAYAKICDPGLTSFEPEALGNLV [CAMK2B]	NO
RNLQDLARIYIRRTLRNFINDEMQ [PCMTD1]	NO

Request: Hi team, for SPDSSMLCSVGASKAVFLWNMDKY [WSB1] , is the recorded protein stability index at or above 3?
Result: NO

Request: Is protein stability index at least 3? Consider RYGCGHRGCGDGCCCPSCYRRYRF [KRTAP19-2]
Result: YES

Request: Identify whether the reported protein stability index of the following sequence is 3 or greater: DKDENKLSEASGGRAENGERSDLE [ZC3H15]
Result: YES

Request: Can LQGFDQLRLEGLLCDVTLMPGDTD [KLHL13] be said to have protein stability index at or above 3?
Result: YES

Request: I'd appreciate it if you could say whether DHPLPEVAHVKHLSASQKALKEKE [COX4I1] has protein stability index at least equal to 3.
Result: YES

Request: Please indicate if the recorded protein stability index for LDRLKVLMQVHASRSNNMGIVGGF [SLC25A25] meets or exceeds 3.
Result: NO

Request: Could you verify whether the entry GLDGYRGYSLADWVCLAYFTSGFN [SPACA3] shows protein stability index of no less than 3?
Result: NO

---

Catalogue of protein stability index readings, one per entry.
method summary: protein stability index of a GFP-peptide fusion (GPS, HEK-293T) (PSI 1-6); higher = more stable
experimental conditions: treatment: DMSO; c terminus: a fixed tail appended
# respond with the number and nothing more

sequence input	parameter	numeric readout
YGTQRTLILESQNWRYATGGWETV [FUT8]	protein stability index	2.1
HELTAKYLNYYQGMLDVADESLTD [P3H4]	protein stability index	4.01
GHVEMVNLLLAKGANINAFDKKDR [ANKRD44]	protein stability index	3.41
GTYSQALNDAKRELRFLLVYLHGD [FAF2]	protein stability index	2.41
PSEPSAPLPAGVPPLEDFEVLDGV [FKBP8]	protein stability index	5.49
LVTLPVSFAQLKNLKWLDLKDNPL [LRRC59]	protein stability index	2.29
GEEQTQNPYTELLVLKAHHDIVRF [WDR41]	protein stability index	2.51
AFAERYAPDKTSTVLTRHSQPATP [PDLIM7]	protein stability index	4
TCLMMDMKACQEDDVRLLCHLTPS [INTS3]	protein stability index	2.69
PSTVGAEAQEEFLRVLGSMCQRLR [DFFB]	protein stability index	2.28

Request: protein stability index lookup needed for FTRKTLAEKKQELDKLRNEWASHT [SASS6] , thanks.
Result: 3.15

Request: So what does the record say about protein stability index for LSCTLVPRSGEQAEGSPGGPGDSQ [CDKN1A] ?
Result: 5.03

Request: Suppose we examine the sequence KITKVMDVRLDREHRVAGIFPRLS [CLPTM1] ; what protein stability index value has been reported?
Result: 2.69

---

Each record here notes measured protein stability index.
method summary: protein stability index of a GFP-peptide fusion (GPS, HEK-293T) (PSI 1-6); higher = more stable
experimental conditions: treatment: MLN4924 1 uM, 8 h; c terminus: a fixed tail appended
// return just the number, without any unit appended

Request: Bench note: what protein stability index did TCLMMDMKACQEDDVRLLCHLTPS [INTS3] show?
Result: 2.73

Request: Requested read-out: protein stability index. Entry: PGAFGTILTFLRAGKLRLLREMCA [KCNG1]
Result: 2.8

Request: What value of protein stability index has been recorded for this entry: LLPEDMALRNLPPLRAAHRRFNFD [SMG5]
Result: 3.2

Request: Record request: protein stability index value, item LGSVQFMEQFCWPHLRSFCETCVG
Result: 2.21

Request: I would be grateful if you could share the reported protein stability index for TTSEEAVGGATLAQTTSEAAMEGA [HDAC6] .
Result: 5.43

Request: Recorded protein stability index of LHPPVDDPQSGELPSERWNPTQNV [CDC34] , please.
Result: 5.04

---

method summary: protein stability index of a GFP-peptide fusion (GPS, HEK-293T) (PSI 1-6); higher = more stable
experimental conditions: treatment: MLN4924 1 uM, 8 h; c terminus: a fixed tail appended
parameter: protein stability index

Request: Data request, read-out protein stability index, for IVVSLQSKLASMSNDFKSVLEVRT [STX5]
Result: 2.64

Request: Which value of protein stability index has been reported for LAARSGAAYGPGARGEDRAGPQSP [TSPAN10] in the records?
Result: 4.9

Request: Which protein stability index is listed for GTLTPRMTTDFDLSLDNSPLLQSI [TRIM9] ?
Result: 3.48

Request: What protein stability index value was documented for this sequence, LQNMGLLLDKLAKENQDIRLLQAQ [PBXIP1] ?
Result: 2.93

Request: Entry VGRLKRERSMSENAVRQNGQLVRN [MFF] has what protein stability index?
Result: 4.94

Request: Look up protein stability index: QHYQQYMQQLYQVQLAQQQAALQK [ACBD3]
Result: 2.21

Request: # lookup: protein stability index of LPSRRDVYLSPRDDGYSTKDSYSS [RBMX]
Result: 3.99

Request: Consider the sequence CLMGLAETPGCATLLPASLFVNSH [DCAF4] and give its measured protein stability index.
Result: 2.35

Request: Please report the recorded protein stability index for SVDDIESETGSTGALETRSLKDHK [C2CD2L] .
Result: 5.43

Request: Look up protein stability index: REPQEDSQKDLENDPSVNSQAQET [TOR1AIP2]
Result: 5.61

Request: Reported protein stability index, sequence VEGFRITLVDESDLYNWEVAIFGP [UBE2R2] : ____
Result: 2.52

Request: Which protein stability index reading was recorded for the sequence TSVEEESFGPQPISRLEQCGINAN [RAD51] ?
Result: 4.63

Request: What does the data say about its protein stability index? Entry: TVARPVFTEYQASAFGNVKLVVHD [RHOBTB3]
Result: 3.17

---

method summary: protein stability index of a GFP-peptide fusion (GPS, HEK-293T) (PSI 1-6); higher = more stable
experimental conditions: treatment: DMSO; c terminus: native
Classify on protein stability index using lower = under 3, middle = from 3 up to 4, upper = 4 and over

Request: Field: class (protein stability index) — entry: TQGLPWRFEELLTCSHWPSFFPS [TEX19]
Result: lower

Request: Lab log: APVPTHSTVSELSRSPVATATSC [DUSP5] — assign protein stability index category
Result: lower

Request: Using the reported protein stability index, which band applies to ASQSPKKPPAKDPLADLNIKDFL [SNAP91] ?
Result: upper

Request: Would you mind sorting DGSKSEDELDQASTPTDVRDIDL [CCND2] into the appropriate category?
Result: upper

Request: Class label required: FLENLDKSRKGELLKKSDLQKDF [PRIM1]
Result: upper

---

method summary: protein stability index of a GFP-peptide fusion (GPS, HEK-293T) (PSI 1-6); higher = more stable
experimental conditions: treatment: DMSO; c terminus: a fixed tail appended
# Lookup of reported protein stability index keyed by entry
Keep the answer to the number alone.

sequence input	numeric readout
VKEDDKLIFHRHPVAQSTDAIRGK [SPSB1]	4.56
GRAENGERSDLEEDNEREGTENGA [ZC3H15]	5.57
GGKGHHLPSENLGKEPLDPDPSHS [TOR1AIP2]	5.46
NMDPKAAEEEEEEEEEVDLACTPT [CCND1]	5.6
NDYIVPRHCPELAEMSRVSIRILD [HNF4A]	3.08
PDALSDVGEVPYWVLEPVLEGWRP [ELOA2]	3.07
RIKGVEVFCPLDPPPPYEAVVSQM [FAM189A2]	2.83
ENRALQQLLEQKQAYWAQAEDTAA [CBY2]	4.3

Request: Which protein stability index is reported for this sequence? SYQDWQQNLYFNCSSPGVQACSLP [TSPAN10]
Result: 2.32

Request: // protein stability index lookup, key: LGNLVEGMDFHRFYFENALSKSNK [CAMK2D]
Result: 2.89

Request: Any idea what protein stability index was measured for EVSSPPDTTEEVDHKPKLCRLAKG [PDZK1] ?
Result: 5.11

Request: Given the sequence SPDKDSIMNIEPAILVMHHSMKPH [INTS3] , what is its reported protein stability index?
Result: 3.32

Request: Name the recorded protein stability index for QAPISAPEYTYGISNIDTTIEGTS [MFF] .
Result: 4.67
